Tested on: MALME-3M melanoma
Assay: NCI tumour cell line growth inhibition, 48 h
measurement_name: TGI

compound	assay_system	reported
CC1(C)OCC(C2OC(N3O[C@H](CI)C[C@@H]3c3ccccc3)C3OC(C)(C)OC23)O1 (some centres undefined)	MALME-3M melanoma	> 100 µM
CC1(C)C(=O)N=C(N)N1C(=O)OCc1ccccc1	MALME-3M melanoma	> 100 µM

Asked: Give MALME-3M melanoma TGI for `COc1ccc(OC)c2nc3c(C(=O)NCCN(C)C)cccc3nc12`
Given back: 27.3 µM

Asked: Give MALME-3M melanoma TGI for CCOC(=O)C1C(=O)c2ccccc2CN1Cc1ccccc1 (centres undefined)
Given back: > 100 µM

----------
Below, each entry is listed alongside its reported TGI.
Test system: M19-MEL melanoma
Test: NCI tumour cell line growth inhibition, 48 h

>>> df
                                   molecule  measurement_name  reported
0  CC(=O)OCC1OC(n2c(=O)n(-c3ccccc3)c(=O)c3ccccc32)C(OC(C)=O)C(OC(C)=O)C1OC(C)=O (centres undefined)               TGI  > 100 µM
1  CCCCc1c2c(nc3c1CCC/C3=C\c1ccccc1)C(=O)C(CN(C)C)CC2 (centres undefined)               TGI     32 µM
2  ON=C1CCC(c2ccccc2)CC1 (centres undefined)               TGI  > 100 µM

Asked: Give M19-MEL melanoma TGI for CC(O)C(O)C(N)CC=O (centres undefined)
Given back: > 500 µM

Asked: Give M19-MEL melanoma TGI for `COC(=O)N/N=C/c1oc(-c2cccc([N+](=O)[O-])c2)c(-c2cccc([N+](=O)[O-])c2)c1[N+](=O)[O-]`
Given back: > 100 µM

Asked: Give M19-MEL melanoma TGI for `CCN(CC)Cc1cc(Nc2c3ccccc3nc3c2[nH]c2ccccc23)ccc1O`
Given back: 3.04 µM

Asked: Give M19-MEL melanoma TGI for `COc1ccc2ccc([Se]c3ccc4ccc(OC)cc4c3)cc2c1`
Given back: > 100 µM

Asked: Give M19-MEL melanoma TGI for COc1ccc(C2C(Cl)C(=O)N2NC(=O)Cc2ccccc2)cc1 (centres undefined)
Given back: > 100 µM

Asked: Give M19-MEL melanoma TGI for `CCOC(=O)CC1=CSC2=NCCN12`
Given back: > 100 µM

Asked: Give M19-MEL melanoma TGI for `CCOC(=O)c1ccc(N2C(=O)/C(=C\OC)c3ccccc3C2=O)cc1`
Given back: > 100 µM

Asked: Give M19-MEL melanoma TGI for `COc1ccc2c3ccc4c(c3n(C)c2c1)C(=O)c1ccccc1C4=O`
Given back: > 100 µM

Asked: Give M19-MEL melanoma TGI for `O=S(O)c1cc(Cl)cc(Cl)c1O`
Given back: > 100 µM

Asked: Give M19-MEL melanoma TGI for CC(=O)/C=C/c1ccc(C2CC(C)=Nc3c(ccc4c3C(=O)c3ccccc3C4=O)N2)cc1 (centres undefined)
Given back: > 100 µM

Asked: Give M19-MEL melanoma TGI for `O=C1C(=O)N(c2ccc(Cl)c(Cl)c2)C(=O)C(=O)C1c1nc2ccccc2o1`
Given back: > 100 µM

----------
System: SK-MEL-28 melanoma
Test: NCI tumour cell line growth inhibition, 48 h
measurement_name: TGI

Would you please look over these solved cases?
molecule	reported
COC(=N)C12C(N)=NC(OC)(OC)C1(C#N)C21C(=O)N(c2ccccc2)N=C1C (stereo not drawn)	> 100 µM
COC[n+]1cc2cc(OC)c(OC)cc2c2ccc3cc(OC)c(OC)cc3c21	> 100 µM
COc1ccc2[nH]c(Cl)c(/C=C3/C(=O)N(C)c4ccccc43)c2c1	> 100 µM
Cc1cc2c(F)c(Oc3ncnn4cc(OC[C@@H](C)OC(=O)[C@H](C)N)c(C)c34)ccc2[nH]1	25.7 µM

Asked: # get_value(readout='TGI', item= CC(C(=O)Oc1ccc2ccccc2c1-c1c(O)ccc2ccccc12)c1ccccc1 (stereo not drawn) )
Given back: 29.2 µM

Asked: # get_value(readout='TGI', item= `[C-]#[O+].[C-]#[O+].[Ir].[O-]c1cccc2cccnc12` )
Given back: > 100 µM

Asked: # get_value(readout='TGI', item= `CN(C)CCNc1ccc2c(=O)n(CCN(C)C)c(=O)n3c4ccc(N)cc4c(=O)c1c23` )
Given back: 0.819 µM

Asked: # get_value(readout='TGI', item= CC1NC(/C(=C/c2ccccc2O)NC(=O)c2ccccc2)OC1=O (stereo not drawn) )
Given back: > 50 µM

Values from PubChem BioAssay (NCI)
